# measurement.target: ~100 representative kinases (Homo sapiens, UniProt P16083)
# Construct: Recombinant protein kinase domains with a concentration of 2 μM
# Sequence (P16083 1-231): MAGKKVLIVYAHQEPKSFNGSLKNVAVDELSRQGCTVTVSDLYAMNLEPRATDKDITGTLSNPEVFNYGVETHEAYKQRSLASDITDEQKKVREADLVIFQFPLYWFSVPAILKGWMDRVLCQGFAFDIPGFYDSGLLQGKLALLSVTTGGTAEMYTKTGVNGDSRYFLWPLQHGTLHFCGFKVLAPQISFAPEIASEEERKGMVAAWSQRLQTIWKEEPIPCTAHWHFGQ
# test.method.notes: DSF 100 kinase selectivity screen;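 further: compound tested at 20 µM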
# Type: binding
# run.parameters: protein NQO2; average of three replicates
Note to self: dTm under -0.5 K means MET, ties and anything higher get NOT MET.

{"columns": ["structure.as.smiles", "answer.label"],
 "data": [
  ["Cc1cc(NC(=O)C2(C(=O)Nc3cccc(-c4c[nH]c5ncnc(N6CCOCC6)c45)c3)CC2)ccc1F", "MET"],
  ["O=C(Nc1ccc(F)cc1)C1(C(=O)Nc2cccc(-c3c[nH]c4ncnc(N5CCOCC5)c34)c2)CC1", "MET"],
  ["CC(=O)N1CCN(c2nc(Cl)nc3[nH]cc(-c4cccc(NC(=O)Nc5cc(C(C)(C)C)nn5-c5ccc(C)cc5)c4)c23)CC1", "NOT MET"],
  ["O=C(Nc1cccc(-c2c[nH]c3ncnc(N4CCOCC4)c23)c1)C1(C(=O)Nc2ccc(F)c(Br)c2)CC1", "NOT MET"],
  ["Cc1ccc(C(=O)Nc2ccc(CN3CCN(C)CC3)c(C(F)(F)F)c2)cc1C#Cc1c[nH]c2ncnc(N3CCOCC3)c12", "NOT MET"],
  ["COc1cc(S(C)(=O)=O)ccc1Nc1nc(N(C)C)c2c(Cl)c[nH]c2n1", "MET"]
]}
